The compounds below each have a reported Ki tested on Carbonic anhydrase 9 (Homo sapiens, UniProt Q16790); the values come from various publications.
quantity kind: Ki (nM)

Completed entries (count: 3):
(Q) Returns the measured Ki for the input compound. Input: CCC(C)NC(=S)S (racemic)
(A) 4.6

(Q) Returns the measured Ki for the input compound. Input: CC(C)(C)n1c(=O)cc(-c2cn(S(=O)(=O)c3ccccc3)c3ccccc23)[s+]1[O-] (centres undefined)
(A) 8.8

(Q) Returns the measured Ki for the input compound. Input: `CC1=NN(c2ccc(S(N)(=O)=O)cc2)C(=O)CC1`
(A) 32.8

1. CC(=O)OC[C@H]1O[C@@H](NC(=S)NCCc2ccc(S(N)(=O)=O)cc2)[C@H](OC(C)=O)[C@@H](OC(C)=O)[C@@H]1O[C@H]1O[C@H](COC(C)=O)[C@@H](OC(C)=O)[C@H](OC(C)=O)[C@H]1OC(C)=O
2. Cc1ccc(CNc2ccc(S(N)(=O)=O)cc2)cc1
3. NS(=O)(=O)c1ccc(CCNC(=O)c2c(F)c(F)cc(F)c2F)cc1
(Q) Put the items in order so that reported Ki rises from first to last. Provide the ranking by listing each label in its place in the requested order.
(A) 2, 3, 1
(2: 2.1 nM, 3: 7.3 nM, 1: 122 nM)

I. COc1cc2ccc(=O)oc2c(OC)c1OC
II. Nc1cccc(C(=O)N2CCN(C(=O)c3ccc(S(N)(=O)=O)cc3)CC2)c1
(Q) Pick one, I or II : lowest reported Ki. Answer with the label corresponding to your selection.
(A) II

----------
The compounds below each have a reported Ki tested on Carbonic anhydrase 9 (Homo sapiens); the values come from various publications.
quantity kind: Ki (nM)

Completed entries (count: 6):
(Q) Returns the measured Ki for the input compound. Input: `NS(=O)(=O)c1cc(-c2nnc(-c3ccccc3)[nH]2)c(Cl)cc1Cl`
(A) 9.7

(Q) Returns the measured Ki for the input compound. Input: COc1ccc(C2=NN(C(C)=O)C(c3c(C)nn(-c4ccc(S(N)(=O)=O)cc4)c3Cl)C2)cc1 (centres undefined)
(A) 56.9

(Q) Returns the measured Ki for the input compound. Input: `NS(=O)(=O)c1ccc(NCc2coc3ccccc3c2=O)cc1`
(A) 29.8

(Q) Returns the measured Ki for the input compound. Input: `N/C(=N\S(=O)(=O)c1ccccc1SCc1ccc(C(F)(F)F)cc1)NNc1nc(Cl)nc(Nc2ccc(S(N)(=O)=O)cc2)n1`
(A) 42.9

(Q) Returns the measured Ki for the input compound. Input: `CCOc1ccc(S(=O)(=O)N2CCN(C)CC2)cc1-c1nnc2c(n1)c(C)nn2-c1ccc(S(=O)(=O)N2CCN(C)CC2)cc1`
(A) 29.6

(Q) Returns the measured Ki for the input compound. Input: `NS(=O)(=O)c1ccc(-n2nnc(CS(=O)(=O)[C@@H]3O[C@H](CO)[C@@H](O)[C@H](O)[C@H]3O)c2I)cc1`
(A) 61

A. O=C(O)c1c(F)c(F)cc(F)c1F
B. Cc1c(-c2nnc(SCC(=O)c3cccc(Br)c3)[nH]2)nnn1-c1ccc(S(N)(=O)=O)cc1
C. NS(=O)(=O)c1ccc(-n2cc(C(=O)c3ccc(F)cc3)nn2)cc1
(Q) Given 3 compounds, produce a descending ranking by Ki. Provide the ranking by listing each label in its place in the requested order.
(A) A, B, C
(A: 770000 nM, B: 1470 nM, C: 47.8 nM)

----------
The compounds below each have a reported Ki tested on Carbonic anhydrase 9 (Homo sapiens); the values come from various publications.
quantity kind: Ki (nM)

Completed entries (count: 2):
(Q) Returns the measured Ki for the input compound. Input: CCCN(CCC)S(=O)(=O)c1ccc(C(=O)NC2CCCC(C)C2)cc1 (stereo not given)
(A) 188

(Q) Returns the measured Ki for the input compound. Input: `NS(=O)(=O)c1ccc(Nc2nc(Cl)nc(NCCCCO)n2)cc1`
(A) 34.8

I. NS(=O)(=O)c1ccc(CNC(=O)CN2C(=O)NC3(CCCC3)C2=O)cc1
II. Cc1cc(=O)oc2cc(-n3cc(CNc4ccccc4)nn3)ccc12
III. NS(=O)(=O)c1ccc(C(=O)N2CCN(C(=O)c3cccc([N+](=O)[O-])c3)CC2)cc1
(Q) Given 3 compounds, produce a descending ranking by Ki. Provide the ranking by listing each label in its place in the requested order.
(A) I, II, III
(I: 93 nM, II: 34.4 nM, III: 2.2 nM)

----------
The compounds below each have a reported Ki tested on Carbonic anhydrase 9 (Homo sapiens, UniProt Q16790); the values come from various publications.
quantity kind: Ki (nM)

(Q) Returns the measured Ki for the input compound. Input: `NS(=O)(=O)c1cccc(N2C(=O)c3ccc([N+](=O)[O-])cc3C2=O)c1`
(A) 10000

A. NS(=O)(=O)c1ccc(NC(=O)Nc2cccc([N+](=O)[O-])c2)cc1
B. NS(=O)(=O)c1cn(CC(=O)c2ccc(Cl)c(Cl)c2)ccc1=O
(Q) Pick one, A or B : lowest reported Ki. Answer with the label corresponding to your selection.
(A) A
(A: 0.9 nM, B: 8.6 nM)

a. COc1ccccc1-c1noc(-c2ccc(S(N)(=O)=O)cc2)n1
b. CCOc1ccc(S(=O)(=O)N(CC)CC)cc1-c1nnc2c(n1)c(C)nn2C
(Q) Exercise: compare a and b ; which one has the greater Ki? Answer with the label corresponding to your selection.
(A) b
(b: 42.4 nM, a: 21.1 nM)

----------
The compounds below each have a reported pKi tested on Carbonic anhydrase 9 (Homo sapiens, UniProt Q16790); the values come from various publications.
pKi: −log10 of the molar value.
quantity kind: pKi

Completed entries (count: 5):
(Q) Returns the measured pKi for the input compound. Input: `N#Cc1ccc(-c2ccc(S(N)(=O)=O)cc2)cc1`
(A) 6.64

(Q) Returns the measured pKi for the input compound. Input: `COc1ccc(-c2cs/c(=N\c3ccc(S(N)(=O)=O)cc3)n2C2CCCCC2)cc1`
(A) 7.78

(Q) Returns the measured pKi for the input compound. Input: `Cc1cccc(C)c1NC(=O)Cn1ccc(=O)c(S(N)(=O)=O)c1`
(A) 7.76

(Q) Returns the measured pKi for the input compound. Input: `NS(=O)(=O)c1ccc(CNC(=O)Cn2ccc(=O)[nH]c2=O)cc1`
(A) 6.39

(Q) Returns the measured pKi for the input compound. Input: `C=CCCOS(N)(=O)=O`
(A) 6.41

I. C/C(=N\NC(N)=S)c1nnn(-c2ccc(S(N)(=O)=O)cc2)c1C
II. CCOc1ccc2c(c1)OC1(CCN(c3ccc(S(N)(=O)=O)cc3[N+](=O)[O-])CC1)CC2=O
III. NS(=O)(=O)c1ccc(-n2nc(CCO)cc2-c2ccccc2)cc1
IV. CC(=O)Nc1ccc(Nc2ccc(S(N)(=O)=O)cc2)cc1
V. CC(=O)OC[C@H]1O[C@@H](On2cc(CNC(=O)c3ccc(S(N)(=O)=O)cc3)nn2)[C@H](OC(C)=O)[C@@H](OC(C)=O)[C@@H]1OC(C)=O
(Q) Put the items in order so that reported pKi rises from first to last. Provide the ranking by listing each label in its place in the requested order.
(A) I, II, V, IV, III

----------
The molecules below each have a reported Ki tested on Carbonic anhydrase 9 (Homo sapiens, UniProt Q16790); the values come from various publications.
quantity kind: Ki (µM)

(Q) Returns the measured Ki for the input molecule. Input: `O=C(Nc1cccc(C(=O)O)c1)Nc1cc2cc(Br)ccc2o1`
(A) 0.79

(Q) Returns the measured Ki for the input molecule. Input: NS(=O)(=O)c1ccc(C(=O)N2CCc3cc(O)c(O)cc3C2c2ccc(F)cc2)cc1 (racemic)
(A) 0.0082

(Q) Returns the measured Ki for the input molecule. Input: `NS(=O)(=O)c1ccc(-n2ncc(N3CCCCCC3)c(Cl)c2=O)cc1`
(A) 0.00049

(Q) Returns the measured Ki for the input molecule. Input: `CC(C)(C)N1C(=O)C=C(c2ccccc2)S1(=O)=O`
(A) 0.0284

I. CCCCCc1ccc(-c2cn(-c3c(F)c(F)c(S(N)(=O)=O)c(F)c3F)nn2)cc1
II. O=S1(=O)C=Cc2cc(-c3ccc(F)cc3)ccc2O1
(Q) Exercise: compare I and II ; which one has the greater Ki? Answer with the label corresponding to your selection.
(A) II
(II: 0.0953 µM, I: 0.0389 µM)

P. CC(=O)O[C@@H]1[C@@H](OC(C)=O)[C@H](n2cc(-c3ccc(S(N)(=O)=O)cc3)nn2)O[C@H](COP(=O)(OCCSC(=O)C(C)(C)C)OCCSC(=O)C(C)(C)C)[C@H]1OC(C)=O
Q. NOS(=O)(=O)NC1C=C[C@@H](O)[C@@H](CO)O1 (mixture of isomers)
(Q) Pick one, P or Q : lowest reported Ki. Answer with the label corresponding to your selection.
(A) Q
